tested on: MCF7; experiment: Cytotoxicity against human MCF7 cells by MTT assay; format: functional, cell-based
Some molecules, each annotated with its measured pIC50.
The value called pIC50 is obtained by taking minus log10 of the concentration in mol/L.

Solved cases below.
Item under review: `C=CCn1c2ccccc2c2cc[n+](Cc3ccccc3)cc21` . Reported pIC50?
4.14

Item under review: `Clc1cccc(Cn2c3ccccc3c3cc[n+](Cc4ccccc4)cc32)c1` . Reported pIC50?
4.69

Item under review: `CCCCCCCC[n+]1ccc2c3ccccc3n(CCCc3ccccc3)c2c1` . Reported pIC50?
5.54

Item under review: `CCCCCC[n+]1ccc2c3ccccc3n(CCCc3ccccc3)c2c1` . Reported pIC50?
5.41

Item under review: `Fc1ccc(C[n+]2ccc3c4ccccc4n(CCCc4ccccc4)c3c2)cc1.[Cl-]` . Reported pIC50?
5.01

Item under review: `CC[n+]1ccc2c3ccccc3n(CCCc3ccccc3)c2c1` . Reported pIC50?
4.01

Item under review: `Cc1c2c(cc[n+]1Cc1ccccc1)c1ccccc1n2CCCc1ccccc1.[Br-]` . Reported pIC50?
5.15

Item under review: `Clc1cccc(C[n+]2ccc3c4ccccc4n(CCCc4ccccc4)c3c2)c1.[Br-]` . Reported pIC50?
4.84

Continue with the molecule presented below.
Item under review: `[Br-].c1ccc(CCCn2c3ccccc3c3cc[n+](Cc4ccccc4)cc32)cc1` . Reported pIC50?
4.84
